Hey, just so you know, these numbers are from the supplement of paper PMC7877785.

experiment: self-splicing fitness, log relative to wild type (ln ratio); higher = more splicing; Tetrahymena group I intron in knt gene, E. coli kanamycin selection, DiMSum; sequences stand for … in CUCUCU…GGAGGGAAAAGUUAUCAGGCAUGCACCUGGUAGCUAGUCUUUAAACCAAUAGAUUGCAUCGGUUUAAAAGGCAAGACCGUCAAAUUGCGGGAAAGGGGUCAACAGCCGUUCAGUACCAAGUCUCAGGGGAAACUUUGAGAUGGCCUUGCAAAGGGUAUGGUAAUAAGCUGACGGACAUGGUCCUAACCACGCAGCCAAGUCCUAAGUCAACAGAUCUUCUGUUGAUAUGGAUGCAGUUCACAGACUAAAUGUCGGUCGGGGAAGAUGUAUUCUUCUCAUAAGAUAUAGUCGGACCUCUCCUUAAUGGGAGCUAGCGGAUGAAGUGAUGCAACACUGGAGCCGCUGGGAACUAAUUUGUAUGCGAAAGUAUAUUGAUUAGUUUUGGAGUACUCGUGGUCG; conditions: 30 °C;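 also: selection with 25 µg/mL kanamycin versus none on LB agar overnight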

sequence.record: CGACAGCAAUAUUACGACAG
self-splicing fitness (ln): -0.3

sequence.record: GAGAAGCAAUAUUACGCGAU
self-splicing fitness (ln): -2.81

sequence.record: GUCAAGCAAUAUUACGUCCU
self-splicing fitness (ln): -2.13

sequence.record: CACCAGCAAUAUUACGACCA
self-splicing fitness (ln): -1.94

sequence.record: GGCAAGCAAUAUUACGAAUA
self-splicing fitness (ln): -1.45

sequence.record: AAGAAGCAAUAUUACGAAUA
self-splicing fitness (ln): -1.86

sequence.record: GAUAAGCAAUAUUACGGUUA
self-splicing fitness (ln): -0.72

sequence.record: ACCUAGCAAUAUUACGGGCA
self-splicing fitness (ln): -0.58

sequence.record: CGUCAGCAAUAUUACGAGCC
self-splicing fitness (ln): -2.25

sequence.record: CUGAAGCAAUAUUACGCCAG
self-splicing fitness (ln): -3.75

sequence.record: GCAAAGCAAUAUUACGAGAU
self-splicing fitness (ln): -3.64

sequence.record: UCCAAGCAAUAUUACGUGCG
self-splicing fitness (ln): -3.59

sequence.record: UGUUAGCAAUAUUACGCGUA
self-splicing fitness (ln): -0.809
